- System: HCT-116 colon
- EXPERIMENTAL PROTOCOL: NCI tumour cell line growth inhibition, 48 h
MEASURED ENDPOINT: TGI

COMPOUND: Nc1c(N2CCOCC2)c(=O)nc2[nH]/c(=C\c3ccccc3O)c(=O)n12
TESTED ON: HCT-116 colon
MEASURED ENDPOINT: TGI
VALUE: > 100 µM

Lab note: N#CCCN(CCC#N)c1ccc(C(N=Nc2ccccc2)=Nc2ccc(F)cc2)cc1 gave TGI of > 100 µM

Lab note: CC(SCc1ccccc1)C(=O)O (centres undefined) gave TGI of > 100 µM

Lab note: COc1cc2c(c(OC)c1)[C@H](C)N(Cc1ccccc1)C(C)C2 (some centres undefined) gave TGI of > 100 µM

----------
- System: SK-OV-3 ovarian
- EXPERIMENTAL PROTOCOL: NCI tumour cell line growth inhibition, 48 h
TGI values for the compounds below.
Give the value, in units of µM, as a plain number.

Please review the entries below; each comes with its answer.
STRUCTURE STRING: CC(C)=CCC[C@@H](C)C1=C(Nc2ccccc2F)C(O)=C(C)C(=O)C1=O
UNIT SPEC: µM
VALUE: 73.3
//
STRUCTURE STRING: Nc1cccc2c1C(=O)c1cccc(NC(=O)c3ccccc3)c1C2=O
UNIT SPEC: µM
VALUE: 9.24

TGI of COc1ccc2[nH]c(C(=O)OCc3ccc4c(Cl)cc(Cl)c(O)c4n3)cc2c1 , assay on SK-OV-3 ovarian, is 17.7

----------
TGI values for the compounds below.
- Test system: HCC-2998 colon
- EXPERIMENTAL PROTOCOL: NCI tumour cell line growth inhibition, 48 h

Please review the entries below; each comes with its answer.
COMPOUND: COc1cc2c(cc1OCc1ccccc1)NC(=O)[C@@H]1CCCN1C2=O
TGI: > 100 µM
--
COMPOUND: O=C1Nc2cc(F)ccc2C1=O
TGI: > 100 µM

Lab note: COC(=O)N/N=C(\C)CC(=O)Nc1ccc(Cl)cc1 gave TGI of > 100 µM

Lab note: CC(C)(C)/C(O)=C\c1nc2cc(F)c(F)cc2[nH]c1=O gave TGI of > 100 µM

Lab note: CC1=C(C)SC(=C2Sc3c(n(C)c(=O)n(C)c3=O)S2)S1 gave TGI of > 100 µM

Lab note: Nc1c(N2CCOCC2)c(=O)nc2[nH]/c(=C\c3ccccc3O)c(=O)n12 gave TGI of > 100 µM

Lab note: C[CH2][Sn]([CH2]C)([O]C(=O)c1ccc(F)cc1)[O]C(=O)c1ccc(F)cc1 gave TGI of > 100 µM

Lab note: C[C@@H]1CC[C@@]2(NC1)O[C@H]1C[C@H]3[C@@H]4CC[C@H]5C[C@@H](O)CC[C@]5(C)[C@H]4CC[C@]3(C)[C@H]1[C@@H]2C gave TGI of > 100 µM

Lab note: CCC(CO)Nc1nc2c(c(=O)n(C)c(=O)n2C)n1CCO (stereo not given) gave TGI of > 100 µM

Lab note: N#CC1=C(N)NC(=O)NC12Nc1ccccc1N2 gave TGI of > 100 µM

----------
TGI values for the compounds below.
- System: SW-620 colon
- EXPERIMENTAL PROTOCOL: NCI tumour cell line growth inhibition, 48 h

Please review the entries below; each comes with its answer.
COMPOUND: CCCCNC(=O)Cn1c2ccc(Br)cc2c2nc3ccccc3nc21
TESTED ON: SW-620 colon
TGI: > 100 µM
//
COMPOUND: COc1cc(NCCCCCN=C(N)NC(N)=NC(C)C)c2ncccc2c1
TESTED ON: SW-620 colon
TGI: 14 µM
//
COMPOUND: CC(SCc1ccccc1)C(=O)O (stereo not drawn)
TESTED ON: SW-620 colon
TGI: > 100 µM
//
COMPOUND: C/C=C(\C)C(=O)OC1/C=C(\C)CC/C=C(\C)CC2OC(=O)C(C)(OC(C)=O)C12 (stereo not drawn)
TESTED ON: SW-620 colon
TGI: > 100 µM
//
COMPOUND: NC(=O)C1CCN(Cc2c(Cl)c(Cl)c(CN3CCC(C(N)=O)CC3)c(Cl)c2Cl)CC1
TESTED ON: SW-620 colon
TGI: > 100 µM
//
COMPOUND: COc1ccc2nc3cc(Cl)ccc3c(Nc3cc(CN4CCCC4)c(O)c(CN4CCCC4)c3)c2n1
TESTED ON: SW-620 colon
TGI: 4.95 µM
//
COMPOUND: CC(C)=C/C(CC(O)(C(F)(F)F)C(F)(F)F)=N\O
TESTED ON: SW-620 colon
TGI: > 100 µM
//
COMPOUND: Cc1ccc(C(=O)NC2CC2)cc1-c1ccc2[nH]ncc2c1
TESTED ON: SW-620 colon
TGI: > 25 µM

Lab note: O=C(NC(C(F)(F)F)(C(F)(F)F)P(=O)(Cc1ccccc1)Cc1ccccc1)C(C(F)(F)F)C(F)(F)F gave TGI of 92.7 µM

Lab note: CCOC(=O)C(NC(=O)c1cccc(Cl)c1)(Nc1cccc(C)c1)C(F)(F)F (stereo not drawn) gave TGI of 37.2 µM

Lab note: COc1cc(C(=O)c2cocc2C(=O)c2ccc3c(c2)OCO3)cc(OC)c1OC gave TGI of > 57.8 µM

Lab note: CC1c2[nH]c3ccccc3c2CCN1O (stereo not drawn) gave TGI of > 100 µM

Lab note: CCCn1cc2c3c(cccc31)C1C=C(C)CN(C)C1C2 (stereo not drawn) gave TGI of 62.4 µM

----------
- System: NCI/ADR-RES ovarian
- EXPERIMENTAL PROTOCOL: NCI tumour cell line growth inhibition, 48 h
TGI values for the compounds below.

Please review the entries below; each comes with its answer.
COMPOUND: O=C1CC[C@@]23CC(=O)O[C@@H]2CCCC3C1 (stereo partly specified)
TGI: > 100 µM
//
COMPOUND: CCOC(=O)c1c(SCc2cc(=O)[nH]c(=O)[nH]2)n(-c2ccccc2)c(=S)n(-c2ccccc2)c1=O
TGI: > 100 µM
//
COMPOUND: CCCCn1c(=O)c(/C=C/C(=O)/C=C/c2cc3ccccc3n(CCCC)c2=O)cc2ccccc21
TGI: 13.5 µM

Lab note: CSc1nc(=O)c2nc(-c3cccs3)c(-c3cccs3)nc2n1C gave TGI of > 100 µM

Lab note: CCOC(=O)c1csc(NC(=O)CCN2CCCC2)n1 gave TGI of > 100 µM

Lab note: C[C@@H]1CC[C@@]2(NC1)O[C@H]1C[C@H]3[C@@H]4CC[C@H]5C[C@@H](O)CC[C@]5(C)[C@H]4CC[C@]3(C)[C@H]1[C@@H]2C gave TGI of > 100 µM

Lab note: O=c1c2ccc(Cl)cc2oc2c(CNc3ccc(S(=O)(=O)Nc4ncccn4)cc3)cccc12 gave TGI of > 100 µM

Lab note: CCOC(=O)/C=C/c1cccc(F)c1 gave TGI of > 100 µM

Lab note: OC(CC(O)(C(F)(F)Cl)C(F)(F)Cl)c1ccccc1 (stereo unspecified) gave TGI of > 10 µM

Lab note: Nc1c(N2CCOCC2)c(=O)nc2[nH]/c(=C\c3ccccc3O)c(=O)n12 gave TGI of > 100 µM

Lab note: CCN(CC)CCCCNc1c2ccc(Cl)cc2nc2ccc(OC)cc12 gave TGI of 3.95 µM

----------
- System: HT29 colon
- EXPERIMENTAL PROTOCOL: NCI tumour cell line growth inhibition, 48 h; in the data active = GI50 below about 0.43 µM; inactive = the rest
Respond using exactly one of the listed classes: active, inactive

// known answers, use as guide
COMPOUND: O=C1N=C(Nc2nc(-c3csc(NC4=NC(=O)/C(=C\c5ccccc5)S4)n3)cs2)S/C1=C/c1ccccc1
GROUP LABEL: inactive

COMPOUND: Cc1ccc(C(=O)NC2CC2)cc1-c1ccc2[nH]ncc2c1
GROUP LABEL: inactive

COMPOUND: CCOC(=O)C1=C(C)NC(c2ccco2)=C(C#N)C1c1cccc([N+](=O)[O-])c1 (stereo not drawn)
GROUP LABEL: active

COMPOUND: O=c1[nH]c(=O)n(C2CC(O)C(CO)O2)cc1C(F)(F)F (stereo not drawn)
GROUP LABEL: inactive

COMPOUND: C[N+](C)=c1ccc2nc3c(cc(NCCCNc4cc5oc6cc(=[N+](C)C)ccc-6nc5c5ccccc45)c4ccccc43)oc-2c1
GROUP LABEL: inactive

Q: Test call, this compound: COC(=O)N[C@H]1CCc2c(Cl)c(OC)c(OC)c(OC)c2-c2ccc(SC)c(=O)cc21
Ans: active

Q: Test call, this compound: O=C(/C=C/C12c3ccccc3C(c3ccccc31)C1C(=O)NC(=O)C12)c1ccccc1 (stereo not drawn)
Ans: inactive

Q: Test call, this compound: C=C(C)[C@@H]1CC[C@]2(C(=O)NS(=O)(=O)c3ccccc3)CC[C@]3(C)[C@H](CC[C@@H]4[C@@]5(C)CC[C@H](OC(=O)NS(=O)(=O)c6ccccc6)C(C)(C)[C@@H]5CC[C@]43C)[C@@H]12
Ans: inactive

The values you see were collected from PubChem BioAssay (NCI).
